B1: POU domain, class 2, transcription factor 3, residues 186 to 260; numbered along this chain, Q9UKI9 (parent)
chain: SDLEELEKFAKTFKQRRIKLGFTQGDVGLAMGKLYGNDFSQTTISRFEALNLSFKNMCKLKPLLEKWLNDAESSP

# Variants of: B1
# measurement-description: abundance fitness (aPCA) (normalised: wild type 0, dead -1); higher = more abundant; growth selection in yeast, the domain comes from the species named
# experimental-context: Homo sapiens
measure-name: abundance fitness

Example entries and their recorded answers appear below.
Supply recorded abundance fitness for `K59Q` here.
-0.03

Give reported abundance fitness value for `M31R`
-0.746

Given `L64N` , respond with its abundance fitness.
-0.776

***
Please give the documented abundance fitness of `K19L`
0.228

State its abundance fitness for this variant: `A49P`
-0.384

For the variant `N51T` , give its measured abundance fitness value.
0.007

Write down abundance fitness measured for item `K55C`
-0.033

For the variant `E48M` , give its reported abundance fitness.
-0.798

Consider the variant `N37W` and give its recorded abundance fitness.
-0.07

Consider the variant `P75R` and give its recorded abundance fitness.
-0.044

Using known records, supply abundance fitness for `K59N`
-0.026

Look up and report measured abundance fitness for this entry: `L29W`
-0.121

Fill in reported abundance fitness for this entry: `W67F`
-0.004

Look up and state reported abundance fitness for `Q24S`
-0.071
